- experimentalTarget: ALDH2 (Homo sapiens)
- Sequence (P05091 18-517): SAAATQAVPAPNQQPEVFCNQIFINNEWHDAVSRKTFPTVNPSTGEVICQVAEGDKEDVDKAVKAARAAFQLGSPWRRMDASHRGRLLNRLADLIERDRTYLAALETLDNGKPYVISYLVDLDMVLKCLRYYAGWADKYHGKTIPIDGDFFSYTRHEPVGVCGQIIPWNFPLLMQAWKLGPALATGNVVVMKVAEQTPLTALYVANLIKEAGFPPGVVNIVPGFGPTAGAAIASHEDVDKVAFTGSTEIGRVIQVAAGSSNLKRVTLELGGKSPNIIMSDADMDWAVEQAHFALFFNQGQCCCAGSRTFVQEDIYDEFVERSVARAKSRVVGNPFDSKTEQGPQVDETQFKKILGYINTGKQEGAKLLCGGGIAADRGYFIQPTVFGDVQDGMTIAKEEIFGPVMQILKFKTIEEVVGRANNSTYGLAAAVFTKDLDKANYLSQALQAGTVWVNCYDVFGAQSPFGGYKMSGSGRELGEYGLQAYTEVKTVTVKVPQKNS
- assayName: Inhibition of ALDH isoenzymes (NAD(P)H formation at 340 nm, purified recombinant enzyme)
- Format: biochemical
- experimentalConditions: compound at 20 μM; read-out: ALDH2 % Control at 20 μM
endpoint: remaining activity at 20 µM

{"compound": "Cn1ncc2c(=O)n(-c3cccc(Cl)c3)c(SCc3cccc(F)c3)nc21", "experimentalTarget": "ALDH2 (Homo sapiens)", "remaining activity at 20 µM": "137%"}
{"compound": "Cn1ncc2c(=O)n(-c3ccccc3)c(COCc3cccc(F)c3)nc21", "experimentalTarget": "ALDH2 (Homo sapiens)", "remaining activity at 20 µM": "101%"}

Name the recorded remaining activity at 20 µM of `Cn1ncc2c(=O)n(-c3ccccc3)c(SCc3cccc(C=O)c3)nc21` , assay system ALDH2 (Homo sapiens).
102%

Give the observed remaining activity at 20 µM of `Cn1ncc2c(=O)n(-c3ccccc3)c(/C=C/c3cccc(F)c3)nc21` for ALDH2 (Homo sapiens).
110%

###

Listing: remaining activity at 20 µM of selected molecules
- experimentalTarget: UniProt:P05091
- Sequence (P05091 18-517): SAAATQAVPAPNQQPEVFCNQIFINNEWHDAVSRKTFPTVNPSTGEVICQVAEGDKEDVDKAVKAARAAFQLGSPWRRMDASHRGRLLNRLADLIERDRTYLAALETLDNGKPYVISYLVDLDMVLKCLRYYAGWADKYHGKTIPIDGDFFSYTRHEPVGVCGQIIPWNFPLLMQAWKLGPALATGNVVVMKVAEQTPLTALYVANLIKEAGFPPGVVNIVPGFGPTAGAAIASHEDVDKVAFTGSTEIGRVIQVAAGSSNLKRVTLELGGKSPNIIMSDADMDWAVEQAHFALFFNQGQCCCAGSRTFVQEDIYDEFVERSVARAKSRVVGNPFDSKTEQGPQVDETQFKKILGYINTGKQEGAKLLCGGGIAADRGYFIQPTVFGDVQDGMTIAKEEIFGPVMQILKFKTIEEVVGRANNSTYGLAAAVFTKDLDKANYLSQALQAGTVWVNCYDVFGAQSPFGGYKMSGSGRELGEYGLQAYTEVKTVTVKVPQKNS
- assayName: Inhibition of ALDH isoenzymes (NAD(P)H formation at 340 nm, purified recombinant enzyme);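 on ALDH2 % Control at 20 μM: run at 25 °C, started by adding substrate after 2 min preincubation, with 100-200 nM ALDH2, 200 µM NAD+, 100 µM propionaldehyde, 1% DMSO in BES buffer pH 7.5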
- Assay type: biochemical
- experimentalConditions: compound at 20 μM; read-out: ALDH2 % Control at 20 μM
The response must be a number in % with no trailing unit.

Examples with answers:
{"molecule": "Cn1ncc2c(=O)n(-c3ccccc3)c(SC3CCCC3=O)nc21 (centres unmarked)", "experimentalTarget": "UniProt:P05091", "unitsSymbol": "%", "measuredValue": 95}
{"molecule": "CN(Cc1nc2c(cnn2C)c(=O)n1-c1ccccc1)c1cccc(F)c1", "experimentalTarget": "UniProt:P05091", "unitsSymbol": "%", "measuredValue": 103}
{"molecule": "C[C@@H](Sc1nc2c(cnn2C)c(=O)n1-c1ccccc1)c1ccccc1", "experimentalTarget": "UniProt:P05091", "unitsSymbol": "%", "measuredValue": 100}
{"molecule": "Cn1ncc2c(=O)n(C3CCCCC3)c(SCc3cccc(F)c3)nc21", "experimentalTarget": "UniProt:P05091", "unitsSymbol": "%", "measuredValue": 177}

Given the molecule `O=c1c2cn(CC3CNC3)nc2nc(SCc2cccc(F)c2)n1-c1ccccc1` , write its reported remaining activity at 20 µM.
93

Read off the recorded remaining activity at 20 µM for CCC(Sc1nc2c(cnn2C)c(=O)n1-c1ccccc1)c1ccccc1 (centres unmarked)
90

Name the recorded remaining activity at 20 µM of the molecule listed here: `Cn1ncc2c(=O)n(-c3ccccc3)c(OCc3cccc(F)c3)nc21`
91

Tell me its remaining activity at 20 µM given `Cn1ncc2c(=O)n(-c3ccccc3)c(SC3CCCCC3)nc21` as the entry.
96

Recall and state the measured remaining activity at 20 µM for `C[C@H](Sc1nc2c(cnn2C)c(=O)n1-c1ccccc1)c1ccccc1` .
95

Report remaining activity at 20 µM for `CCn1ncc2c(=O)n(-c3ccccc3)c(SCc3cccc(F)c3)nc21`
82

Consider the molecule `Cn1ncc2c(=O)n(-c3ccccc3)c(CSc3cccc(F)c3)nc21` . State its measured remaining activity at 20 µM.
92

Identify measured remaining activity at 20 µM associated with CC(Sc1nc2c(cnn2C)c(=O)n1-c1ccccc1)c1cccc(O)c1 (centres unmarked)
91

Consider the molecule `Cn1ncc2c(=O)n(-c3ccccc3)c(SC(C)(C)c3ccccc3)nc21` . State its measured remaining activity at 20 µM.
102

Check the records and state remaining activity at 20 µM for CC(Sc1nc2c(cnn2C2COC2)c(=O)n1-c1ccccc1)c1ccccc1 (centres unmarked)
95

State its remaining activity at 20 µM: `Cn1ncc2c(=O)n(-c3ccccc3)c(COc3cccc(F)c3)nc21`
101

Look up remaining activity at 20 µM of `Cn1ncc2c(=O)n(-c3ccccc3)c(SCc3cccc(C#N)c3)nc21` and report it.
95

Please supply the value of reported remaining activity at 20 µM for the item Cn1ncc2c(=O)n(-c3ccccc3)c(SC3CCCCC3=O)nc21 (centres unmarked)
94

###

- experimentalTarget: ALDH1A1 (Homo sapiens)
- Sequence (P00352 whole entry): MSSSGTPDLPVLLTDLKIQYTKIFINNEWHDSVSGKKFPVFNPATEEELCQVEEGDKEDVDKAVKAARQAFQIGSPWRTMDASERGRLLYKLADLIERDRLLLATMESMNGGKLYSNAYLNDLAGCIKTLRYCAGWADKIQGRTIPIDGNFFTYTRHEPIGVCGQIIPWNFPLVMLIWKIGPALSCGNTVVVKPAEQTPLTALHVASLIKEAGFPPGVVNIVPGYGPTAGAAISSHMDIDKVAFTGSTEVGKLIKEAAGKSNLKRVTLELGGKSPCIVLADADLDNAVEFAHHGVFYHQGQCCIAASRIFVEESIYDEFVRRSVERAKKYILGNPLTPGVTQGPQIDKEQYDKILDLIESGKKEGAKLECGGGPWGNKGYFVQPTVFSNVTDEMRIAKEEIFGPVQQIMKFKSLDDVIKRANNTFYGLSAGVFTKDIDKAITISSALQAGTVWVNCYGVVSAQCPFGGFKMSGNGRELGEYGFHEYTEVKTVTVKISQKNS
- assayName: Inhibition of ALDH isoenzymes (NAD(P)H formation at 340 nm, purified recombinant enzyme)
- experimentalConditions: 100-200 nM enzyme, 200 μM NAD+, 100 μM propionaldehyde, pH 7.5, 25° C.
endpoint: pIC50
The meaning of pIC50 here: minus log10 of the concentration in molar units.

{"molecule": "CCn1cc2c(=O)n(-c3ccccc3)c(SCc3cccc(F)c3)nc2n1 [Example 15]", "pIC50": 6.76}
{"molecule": "Cn1ncc2c(=O)n(-c3ccccc3)c(SCC(=O)c3ccccc3)nc21 [Example 52]", "pIC50": 6.26}
{"molecule": "Cn1ncc2c(=O)n(-c3ccccc3)c(SCc3cccc(C(=O)C(F)(F)F)c3)nc21 [Example 57]", "pIC50": 7.14}
{"molecule": "Cn1ncc2c(=O)n(-c3ccncc3)c(SCc3cccc(F)c3)nc21 [Example 32]", "pIC50": 5.28}
{"molecule": "CCn1ncc2c(=O)n(-c3ccccc3C)c(SCc3cccc(F)c3)nc21 [Example 5]", "pIC50": 6.46}

# context switch: different molecule, same pIC50
GET pIC50 | system: ALDH1A1 (Homo sapiens) | item: Cc1ccccc1-n1c(SCc2cccc(F)c2)nc2n[nH]c(C)c2c1=O [Example 39]
5.92

###

- experimentalTarget: ALDH1A1 (Homo sapiens)
- assayName: Inhibition of ALDH isoenzymes (NAD(P)H formation at 340 nm, purified recombinant enzyme)
- Assay type: biochemical
- experimentalConditions: 100-200 nM enzyme, 200 μM NAD+, 100 μM propionaldehyde, pH 7.5, 25° C.
endpoint: IC50 (nM)
Supply the numeric figure in nM, leaving out any unit text.

Sample records with IC50:
{"compound": "O=c1c2cn(CC3COC3)nc2nc(OCc2cccc(F)c2)n1-c1ccccc1", "experimentalTarget": "ALDH1A1 (Homo sapiens)", "unitsSymbol": "nM", "IC50": 2280}
{"compound": "Cn1ncc2c(=O)n(-c3ccccc3)c(SCc3ccccc3)nc21", "experimentalTarget": "ALDH1A1 (Homo sapiens)", "unitsSymbol": "nM", "IC50": 387}
{"compound": "Cc1ccccc1-n1c(OCc2cc3ccccc3s2)nc2c(cnn2C)c1=O", "experimentalTarget": "ALDH1A1 (Homo sapiens)", "unitsSymbol": "nM", "IC50": 1700}
{"compound": "CCn1cc2c(=O)n(-c3ccccc3C)c(SCc3cccc(F)c3)nc2n1", "experimentalTarget": "ALDH1A1 (Homo sapiens)", "unitsSymbol": "nM", "IC50": 400}
{"compound": "CCn1ncc2c(=O)n(-c3ccccc3)c(SCc3cccc(F)c3)nc21", "experimentalTarget": "ALDH1A1 (Homo sapiens)", "unitsSymbol": "nM", "IC50": 320}
{"compound": "COc1cccc(CSc2nc3c(cnn3C)c(=O)n2-c2ccccc2)c1", "experimentalTarget": "ALDH1A1 (Homo sapiens)", "unitsSymbol": "nM", "IC50": 281}
{"compound": "Cc1ccccc1-n1c(OCc2cccc(F)c2)nc2c(cnn2C)c1=O", "experimentalTarget": "ALDH1A1 (Homo sapiens)", "unitsSymbol": "nM", "IC50": 1200}
{"compound": "Cn1ncc2c(=O)n(-c3ccccc3O)c(SCc3cccc(F)c3)nc21", "experimentalTarget": "ALDH1A1 (Homo sapiens)", "unitsSymbol": "nM", "IC50": 4100}

// next entry
Name the recorded IC50 of the compound listed here: `CC(C)CCSc1nc2c(cnn2C)c(=O)n1-c1ccccc1`
1200
